# Tested on: Helicobacter pylori
# TEST NAME: Inhibition of Helicobacter pylori recombinant alpha1,3-fucosyltransferase using GDP-[14C]-fucose preincubated for 30 mins by liquid scintillation counting
Active and inactive are the calls of the source. The calls are words filed in the database; no cut-off is given here.
PROPERTY LABEL: inhibition

[[record]]
compound = "Nc1nc2c(ncn2[C@@H]2O[C@H](COP(=O)(O)OP(=O)(O)OP(=O)(O)O)[C@@H](O)[C@H]2O)c(=O)[nH]1 [GUANOSINE TRIPHOSPHATE]"
property_label = "inhibition"
result = "< 75%"

[[record]]
compound = "O=c1[nH]cnc2c1ncn2[C@@H]1O[C@H](COP(=O)(O)OP(=O)(O)O)[C@@H](O)[C@H]1O"
property_label = "inhibition"
result = "65%"

[[record]]
compound = "Nc1nc2c(ncn2[C@@H]2O[C@H](COP(=O)(O)OP(=O)(O)O)[C@@H](O)[C@H]2O)c(=O)[nH]1"
property_label = "inhibition"
result = "< 75%"

[[record]]
compound = "CC(=O)Nc1nc2c(ncn2[C@@H]2O[C@H](COP(=O)(O)OP(=O)(O)OCc3cn([C@@H]4O[C@H](COC(C)=O)[C@H](OC(C)=O)[C@H](OC(C)=O)[C@H]4OC(C)=O)nn3)[C@@H](OC(C)=O)[C@H]2OC(C)=O)c(=O)[nH]1"
property_label = "inhibition"
result = "45%"

[[record]]
compound = "C[C@@H](O)[C@H](O)[C@H](O)[C@@H](O)C=O"
property_label = "inhibition"
result = "Active"


The measured inhibition that `Nc1ncnc2c1ncn2[C@@H]1O[C@H](COP(=O)(O)OP(=O)(O)O)[C@@H](O)[C@H]1O` showed for Helicobacter pylori is Active

Response field inhibition (Helicobacter pylori) for item `Nc1nc2c(ncn2[C@@H]2O[C@H](COP(=O)(O)O)[C@@H](O)[C@H]2O)c(=O)[nH]1` : Active

Data provenance is ChEMBL document CHEMBL3351541.
